Entry source: patent US20220033501A1

- measuredTarget: T1, murine TIM-3 extracellular domain protein with hFc tag (mTIM-3-hFc) (mouse, UniProt Q8VIM0 29-191)
- T1 construct: also called mouse TIM-3 extracellular domain protein; not shown: human IgG Fc fragment (hFc) of the pCpC vector
- T1 chain: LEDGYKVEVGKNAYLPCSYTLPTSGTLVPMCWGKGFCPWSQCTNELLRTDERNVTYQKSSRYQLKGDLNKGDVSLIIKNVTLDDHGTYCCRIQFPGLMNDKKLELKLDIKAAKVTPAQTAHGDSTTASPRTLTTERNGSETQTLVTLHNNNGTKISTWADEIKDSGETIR
- measurementProtocol: ELISA, coated mouse TIM-3 ECD protein, 0.0067 nM antibody
Hi there, I'd appreciate the recorded OD450 for every entry that follows.

Given the binder 18D2H2 fully human TIM-3 antibody (human IgG4, kappa) (antibody, V domains shown) VH: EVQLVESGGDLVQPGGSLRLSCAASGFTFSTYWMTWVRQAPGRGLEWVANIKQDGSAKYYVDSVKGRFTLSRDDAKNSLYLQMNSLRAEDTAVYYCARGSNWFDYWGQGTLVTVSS VL: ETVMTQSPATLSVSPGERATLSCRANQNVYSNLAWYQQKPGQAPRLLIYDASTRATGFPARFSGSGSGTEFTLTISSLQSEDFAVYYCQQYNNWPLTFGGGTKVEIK , what is its reported OD450?
0.22

Need OD450 of 39E5H1 fully human TIM-3 antibody (human IgG4, kappa) (antibody, V domains shown) VH: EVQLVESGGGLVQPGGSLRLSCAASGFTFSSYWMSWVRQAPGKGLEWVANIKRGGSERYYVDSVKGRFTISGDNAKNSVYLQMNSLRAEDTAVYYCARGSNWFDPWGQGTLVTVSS VL: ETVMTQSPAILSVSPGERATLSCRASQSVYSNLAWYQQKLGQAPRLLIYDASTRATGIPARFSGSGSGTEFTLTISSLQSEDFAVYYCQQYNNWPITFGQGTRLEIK , thanks.
0.23

Looking for the measured OD450 of 7A4F10 fully human TIM-3 antibody (human IgG4, kappa) (antibody, V domains shown) VH: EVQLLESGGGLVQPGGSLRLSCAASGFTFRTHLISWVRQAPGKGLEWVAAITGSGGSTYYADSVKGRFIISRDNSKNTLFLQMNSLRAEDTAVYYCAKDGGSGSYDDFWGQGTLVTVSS VL: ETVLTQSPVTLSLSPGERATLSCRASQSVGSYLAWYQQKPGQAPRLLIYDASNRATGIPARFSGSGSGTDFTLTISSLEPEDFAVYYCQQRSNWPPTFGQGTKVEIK , can you help?
0.23
